# Tested on: C. albicans 10231
# Type: cell-based
# Assay context: 10231
Where no end group is shown, it is not given here.
Item-by-item account of MIC
Readout name: MIC

> print(dat)
                                  substance             value
1  H-LKKLLKKLLKKLLKKLLKKLLKKLLKKL-OH [LKKL (7), LKKL LKKL LKKL LKKL LKKL LKKL LKKL]  250 to 500 µg/mL
2  FKLRAKIKVRLRAKIKL [D4E1, FKLRAKIKVRLRAKIKL, reference compound]   80 to 125 µg/mL
3  AKKFAKKFAKKFAKKFAKKFAKKF [AKKF (6), AKKF AKKF AKKF AKKF AKKF AKKF]  250 to 500 µg/mL
4  RFARRFARRFARRFARRFARRFARRFARRFAR [RFAR (8), RFAR RFAR RFAR RFAR RFAR RFAR RFAR RFAR]  250 to 500 µg/mL
5  H-KKAKKKAKKKAKKKAKKKAKKKAKKKAK-OH [KKAK (7), KKAK KKAK KKAK KKAK KKAK KKAK KKAK]        >500 µg/mL
6  RFARRFARRFARRFARRFARRFARRFAR [RFAR (7), RFAR RFAR RFAR RFAR RFAR RFAR RFAR]  250 to 500 µg/mL
7  KFKKFKKFKKFKKFKKFKKFKKFKKFK [KFK (9), KFK KFK KFK KFK KFK KFK KFK KFK KFK]  250 to 500 µg/mL
8  KFAKKFAKKFAKKFAK [KFAK (4), KFAK KFAK KFAK KFAK]   90 to 125 µg/mL
9  KFAKKFAKKFAKKFAKKFAK [KFAK (5), KFAK KFAK KFAK KFAK KFAK]   90 to 125 µg/mL

---

# Experimental protocol: Red blood cell toxicity
# Type: cell-based
# Assay context: red blood cells (RBC); RBCs; concentration required for 50% toxicity; read-out: TX50
Where no end group is shown, it is not given here.
Reported HC50 at 24 h by item:
Readout name: HC50 at 24 h

> print(dat)
                                   substance  readout.name        value
 1  KFKKFKKFKKFKKFKKFKKFK [KFK (7), KFK KFK KFK KFK KFK KFK KFK]  HC50 at 24 h  > 500 µg/mL
 2  KFAKKFAKKFAKKFAK [KFAK (4), KFAK KFAK KFAK KFAK]  HC50 at 24 h  > 250 µg/mL
 3  LKLKLKLKLKLKLKLKLK [LK (9), LK LK LK LK LK LK LK LK LK]  HC50 at 24 h  > 500 µg/mL
 4  H-LKKLLKKLLKKLLKKLLKKLLKKLLKKL-OH [LKKL (7), LKKL LKKL LKKL LKKL LKKL LKKL LKKL]  HC50 at 24 h      9 µg/mL
 5  H-FKAFKAFKAFKAFKAFKAFKAFKA-OH [FKA (8), FKA FKA FKA FKA FKA FKA FKA FKA]  HC50 at 24 h  > 500 µg/mL
 6  H-FKAFKAFKAFKAFKAFKAFKAFKAFKA-OH [FKA (9), FKA FKA FKA FKA FKA FKA FKA FKA FKA]  HC50 at 24 h  > 500 µg/mL
 7  FKAFKAFKAFKAFKAFKAFKA [FKA (7), FKA FKA FKA FKA FKA FKA FKA]  HC50 at 24 h  > 500 µg/mL
 8  LKLKLKLKLKLKLKLKLKLKLKLK [LK (12), LK LK LK LK LK LK LK LK LK LK LK LK]  HC50 at 24 h  > 500 µg/mL
 9  RFARRFARRFARRFARRFARRFARRFARRFAR [RFAR (8), RFAR RFAR RFAR RFAR RFAR RFAR RFAR RFAR]  HC50 at 24 h     17 µg/mL
10  FKAFKAFKAFKAFKAFKA [FKA (6), FKA FKA FKA FKA FKA FKA]  HC50 at 24 h    496 µg/mL
11  KFKKFKKFKKFKKFKKFKKFKKFKKFK [KFK (9), KFK KFK KFK KFK KFK KFK KFK KFK KFK]  HC50 at 24 h  > 500 µg/mL
12  H-KFKKFKKFKKFKKFKKFKKFKKFK-OH [KFK (8), KEK KFK KFK KFK KFK KFK KFK KFK]  HC50 at 24 h  > 500 µg/mL
13  KFAFKFAFKFAFKFAFKFAFKFAFKFAF [KFAF (7), KFAF KFAF KFAF KFAF KFAF KFAF KFAF]  HC50 at 24 h  > 500 µg/mL
14  RFARRFARRFARRFARRFARRFARRFAR [RFAR (7), RFAR RFAR RFAR RFAR RFAR RFAR RFAR]  HC50 at 24 h     20 µg/mL
15  H-KKAKKKAKKKAKKKAKKKAKKKAKKKAK-OH [KKAK (7), KKAK KKAK KKAK KKAK KKAK KKAK KKAK]  HC50 at 24 h  > 500 µg/mL
16  KFKKFKKFKKFKKFKKFK [KFK (6), KFK KFK KFK KFK KFK KFK]  HC50 at 24 h  > 500 µg/mL
17  H-FKAFKAFKAFKAFKAFKAFKAFKAFKAFKA-OH [FKA (10), FKA FKA FKA FKA FKA FKA FKA FKA FKA FKA]  HC50 at 24 h  > 500 µg/mL
18  KFFKKFFKKFFKKFFKKFFKKFFKKFFK [KFFK (7), KFFK KFFK KFFK KFFK KFFK KFFK KFFK]  HC50 at 24 h     12 µg/mL
19  LRLRLRLRLRLRLRLRLRLRLR [LR (11), LR LR LR LR LR LR LR LR LR LR LR]  HC50 at 24 h    450 µg/mL
20  LRLRLRLRLRLRLRLRLR [LR (9), LR LR LR LR LR LR LR LR LR]  HC50 at 24 h  > 500 µg/mL
21  LRLRLRLRLRLRLR [LR (7), LR LR LR LR LR LR LR]  HC50 at 24 h  > 500 µg/mL
22  H-RFARRFARRFARRFARRFARRFAR-OH [RFAR (6), RFAR RFAR RFAR RFAR RFAR RFAR]  HC50 at 24 h    176 µg/mL
23  FAKKFAKKFKKFAKKFAKFAFAF [D2A21, reference compound]  HC50 at 24 h     52 µg/mL
24  FKLRAKIKVRLRAKIKL [D4E1, FKLRAKIKVRLRAKIKL, reference compound]  HC50 at 24 h    134 µg/mL
25  H-LKLKLKLKLKLKLKLK-OH [LK (8), LK LK LK LK LK LK LK LK]  HC50 at 24 h  > 500 µg/mL
26  LKLKLKLKLKLKLKLKLKLK [LK (10), LK LK LK LK LK LK LK LK LK LK]  HC50 at 24 h  > 500 µg/mL
27  LKKLLKKLLKKLLKKLLKKLLKKLLKKLLKKL [LKKL (8), LKKL LKKL LKKL LKKL LKKL LKKL LKKL LKKL]  HC50 at 24 h      8 µg/mL
28  LKKLLKKLLKKLLKKLLKKLLKKL [LKKL (6), LKKL LKKL LKKL LKKL LKKL LKKL]  HC50 at 24 h     11 µg/mL
29  KFAKKFAKKFAKKFAKKFAK [KFAK (5), KFAK KFAK KFAK KFAK KFAK]  HC50 at 24 h  > 250 µg/mL
30  H-LKLKLKLKLKLKLKLKLKLKLK-OH [LK (11), LK LK LK LK LK LK LK LK LK LK LK]  HC50 at 24 h  > 500 µg/mL
31  H-KFKKFKKFKKFKKFKKFKKFKKFKKFKKFK-OH [KFK (10), KFK KFK KFK KFK KFK KFK KEK KFK KFK KFK]  HC50 at 24 h  > 500 µg/mL
32  KAAKKAAKKAAKKAAKKAAKKAAKKAAK [KAAK (7), KAAK KAAK KAAK KAAK KAAK KAAK KAAK]  HC50 at 24 h  > 500 µg/mL
33  H-LKKLLKKLLKKLLKKLLKKL-OH [LKKL (5), LKKL LKKL LKKL LKKL LKKL]  HC50 at 24 h      9 µg/mL
